Values compiled from the DeepSol protein solubility set.

# test protocol: soluble on expression in E. coli; label from the status in PepcDB or PDB records
measurement label: soluble on expression in E. coli

>  <biosequence>
MQVCRQWVTLSLYNNGKWPKMKYQQLENLECGWKWQYLINKWKDGEPVTRYIDKSEIEAAVQKLRAIEHEPTHVLSWIEEHMSSELDNKLKQAIRAKRKRHFNAEQIHTRKKSIDLDYRVWEKLSLKANELGCTLSDAIEYLLSEASRSEKASKTVNSLKEDLSRLLAE

>  <measured>
not soluble

$$$$
>  <biosequence>
MGSDKIHHHHHHMNRKGNLSMTTQLQHLTLPEDIQQKLLSYKEQPISPEFQSLIGTSGYEAEDEAILFDAIIALAMGKNVLLKGPTGSGKTKLAETLSSYFHKPMHSVNCSVDLDAEALVGYKTIENQSGQATIEFVSGPVTKAMKEGHFLYIDEINMAKPETLPILNGVLDYRKMMTNPFTGEVIRAKSGFGVIAAINEGYVGTVPLNEALKNRFVIIDVPYIKGELLKQVLMSQSALKDEKLIDRFITLSSDLIVQANNGQVSEEAASIRALIDTCDLAAYIPPRRAIERGIVEKLDDDREKAAVRNIAETLFE

>  <measured>
not soluble

$$$$
>  <biosequence>
MGSDKIHHHHHHMRLNELYSGKNAFIFQGVGIKYQKFLTLLDESQRELLKEYCSIVYKKIKLDLWGYLTRSLSGEYDDKFSDWVSIYTIDCVVYNTYIEDGIKPSVLLGYSMGLITALACGKAISFEEGLELLSMSYNYPKYTSRKDEGMGLVTGMTCSDIKKIIDKNELGDYAYIASENNEYCILVSGMKNRVDKLLSIALTEGALSAKDIDSPYAFHSKYALIGIEEYEKLVSRLCVCNLKIPIISSYDQRIIVDSCELKKELVKNVWGEMKWMASVEKAININNYNFFEVSLIDSISRFSRMINSNCKFFTYKSFMKIKNVQVQN

>  <measured>
not soluble

$$$$

---

# test protocol: soluble on expression in E. coli; label from the status in PepcDB or PDB records

>  <biosequence>
MSLNTIIQKAKETHELSRDEIIALLKDDSINEELFKAADEVRKKYLGDEVHLRGLIEFTNICKRNCMYCGLRRDNKNLNRYRLSHEEIIDFAKKAVGYGYKTLVLQGGEDDYYTVERLVPIVKDLKALGVALTLSIGERPFEEYEALKKAGADRFLLRIETTDRELYEELDPGMSHENRIQCLKNLRKLGYEVGSGCLVGLPGQKIESLADDILFFKELDVDMNGIGPFIPNEDTPLKDAEGGQFELALKVMAIVRLLLPDINIPATTAMETLNKQGRVIALQCGANVVMPNVTEGEYRKLYALYPGKICTGDTPAHCRGCISGKIRGIGRIVSDGPGFRANGFKPKTEGHHHHHH

>  <soluble on expression in E. coli>
soluble

$$$$
>  <biosequence>
MAHHHHHHMLQWEWPTSLCAERRELIRAAVERAIRNSMAEGSDGQIRGTVNVDELNLGSNPPEVTLSGIRMLSAERTVIMVKVRYTGDFFIRLSGLEVNLDMVGSGAEEADNNFALPFFCPFEMTLRDILIDGMVAIEILQELEENVQWGKCADVPVAPLATTVRSRKNTNGMRPPCRAGTPSTRHRSGYGVLLGGGGRGAMRLPGVLDSIDGSLSSVDMEGASEGHPRHSLRVRNVSPPFFDILSTKVLVKQRVVKMQLFGDPLKSFRVLSNFGSVQGADCKAEQTIRKLIKPAIEQLIEEGIIFNI

>  <soluble on expression in E. coli>
not soluble

$$$$
>  <biosequence>
MNQKDVKLTVFSSDEKSFMVTATLVEKAGHAFLINSKFTQSDSKEIVEYLKKNNLSLDKIFIIHGDPDYYFGLESIKAVYPEAIAYATESTVEHIVHSVLGKLKVWKDALGENAPSNVVLPQVFKEKAIDFQGLTFELVGLEHYRTSLFNKELKVLIGGIDVFNEIHVFLADTSSKAAMEAWIENLKVLQALHADIIVPSHGSIEKSLNNQALTATMDYLRTAVQASEESGTSKDFVAKLEAAYPDYANKGVLELSAKVVTKELEHHHHHH

>  <soluble on expression in E. coli>
not soluble

$$$$
>  <biosequence>
MGSDKIHHHHHHMNKPCIISVAITGSLPRKKDNPAVPITVSEQVESTQAAFEAGATLVHLHVRNDDETPTSNPDRFALVLEGIRKHAPGMITQVSTGGRSGAGNERGAMLSLRPDMASLATGSVNFPTRVYDNPPELVDWLAAEMKTYGIKPEVEAFDLSMIFQAAAMQAAGAIVGPLHIQFVMGIKNAMPVDREVLEFYVQTLKRLSPDATWTGAGIGRHQLTMARWSLELGGHCRTGLEDNVRLDKNTLAPSNAALVRQVAELCEEYGRPVATAAQAREIMSLG

>  <soluble on expression in E. coli>
not soluble

$$$$
>  <biosequence>
MAHHHHHHMQVTETVLARAVIKRRSPQLWGAPGAPIIRMRGHHVVWKFQSYDLVVEHTHKRRNSDIRLLHYLGKHCPHPQKSLWSPDTPVAQDRHLFMLTTVDIDAFKYWFGVKRCRLSMKPWALLAKAGLLPPSLTQNSKIMPKPLFDKESLMRYYLANRKDEDVMAREKYLNYENSMVKTEEERAAERPVAPYL

>  <soluble on expression in E. coli>
soluble

$$$$
